Entries and their half-life
Test: Half life of compound in Sprague-Dawley rat at 1 mg/kg, iv and 2 mg/kg, po
Assay type: ADME, organism-based
Particulars: in vivo
Property: half-life (min)

Cc1c(CCN2CCN(C(=O)Cc3ccc(-n4cnnn4)nc3)CC2)ccc2c1COC2=O; 26.4
O=C1OCc2cc(CCN3CCN(C(=O)Cc4ccc(-n5cnnn5)cc4)CC3)ccc21; 9.6
Cc1c(C(C)CN2CCN(C(=O)Cc3ccc(-n4cnnn4)nc3)CC2)ccc2c1COC2=O (racemic); 57.6
Cc1cc(-n2cnnn2)cnc1CC(=O)N1CCN(CCc2ccc3c(c2C)COC3=O)CC1; 19.8
Cc1c(C(F)CN2CCN(C(=O)Cc3ccc(-n4cnnn4)nc3)CC2)ccc2c1COC2=O (racemic); 21

---

Entries and their AUC/dose
System: Rattus norvegicus
Test: Dose normalized AUC in Sprague-Dawley rat at 2 mg/kg, po
Type: ADME, organism-based
Particulars: in vivo
Property: AUC/dose

O=C1OCc2cc(CCN3CCN(C(=O)Cc4ccc(-n5cnnn5)cc4)CC3)ccc21; 0.067 µM·kg·h/mg
Cc1c(CCN2CCN(C(=O)Cc3ccc(-n4cnnn4)nc3)CC2)ccc2c1COC2=O; 0.84 µM·kg·h/mg
Cc1c(C(C)CN2CCN(C(=O)Cc3ccc(-n4cnnn4)nc3)CC2)ccc2c1COC2=O (racemic); 0.45 µM·kg·h/mg
Cc1cc(-n2cnnn2)cnc1CC(=O)N1CCN(CCc2ccc3c(c2C)COC3=O)CC1; 0.35 µM·kg·h/mg
Cc1c(C(F)CN2CCN(C(=O)Cc3ccc(-n4cnnn4)nc3)CC2)ccc2c1COC2=O (racemic); 0.31 µM·kg·h/mg

---

Test: Half life of compound in beagle dog at 0.5 mg/kg, iv
Format: ADME, organism-based, Canis lupus familiaris
Particulars: in vivo
Property: half-life

Cc1c(CCN2CCN(C(=O)Cc3ccc(-n4cnnn4)nc3)CC2)ccc2c1COC2=O; 78 min

---

Test: Oral bioavailability in Sprague-Dawley rat at 2 mg/kg
Assay type: ADME, organism-based
Particulars: in vivo
Entries and their bioavailability
Property: bioavailability (%)

Cc1cc(-n2cnnn2)cnc1CC(=O)N1CCN(CCc2ccc3c(c2C)COC3=O)CC1; 18
Cc1c(C(F)CN2CCN(C(=O)Cc3ccc(-n4cnnn4)nc3)CC2)ccc2c1COC2=O (racemic); 46
Cc1c(CCN2CCN(C(=O)Cc3ccc(-n4cnnn4)nc3)CC2)ccc2c1COC2=O; 38
Cc1c(C(C)CN2CCN(C(=O)Cc3ccc(-n4cnnn4)nc3)CC2)ccc2c1COC2=O (racemic); 25

---

Test: Half life of compound in rhesus monkey at 0.25 mg/kg, iv and 0.5 mg/kg, po
Format: ADME, organism-based, Macaca mulatta
Particulars: in vivo
Property: half-life (h)

Cc1c(CCN2CCN(C(=O)Cc3ccc(-n4cnnn4)nc3)CC2)ccc2c1COC2=O; 1.1
